Target: Adenosine receptor A2a (Homo sapiens)
Test: Displacement of [3H][…] from human adenosine A2A receptor expressed in human HeLa cells at 0.1 uM by liquid scintillation counting
Type: cell-based
Decision: inhibition >= 3% yields Yes, all other cases yield No.

1. CCC(=O)Nc1nc(-c2ccoc2)cc(-c2ccoc2)n1 | No
2. CCC(=O)Nc1nc(/C=C/c2ccccc2)cc(/C=C/c2ccccc2)n1 | No
3. CCCC(=O)Nc1cc(-c2ccc(SC)cc2)nc(-c2ccc(SC)cc2)n1 | No
4. CCC(=O)Nc1cc(-c2ccc(C)cc2)nc(-c2ccc(C)cc2)n1 | No
5. CCCC(=O)Nc1nc(-c2ccc(F)cc2)cc(-c2ccc(F)cc2)n1 | Yes

Exercise: Determine whether this compound has inhibition no lower than 3%: `COc1ccccc1-c1cc(-c2ccccc2OC)nc(NC(C)=O)n1`
Key: Yes

Exercise: Entry `CCCC(=O)Nc1cc(-c2ccc(C(F)(F)F)cc2)nc(-c2ccc(C(F)(F)F)cc2)n1` : is its inhibition no less than 3%?
Key: No

Exercise: Determine whether measured inhibition meets or exceeds 3% for `CCC(=O)Nc1nc(-c2ccc3c(c2)OCO3)cc(-c2ccc3c(c2)OCO3)n1`
Key: Yes

* * *

Biological target: Adenosine receptor A3 (Homo sapiens) (UniProt P0DMS8)
Assay: Antagonist activity at human adenosine A3 receptor expressed in human HeLa cells assessed as inhibition of forskolin-stimulated cAMP production by enzyme immunoassay
Format: functional, cell-based
recorded.metric: Kb (nM)
Give the value, in units of nM, as a plain number.

Some solved cases for reference:
1. CCC(=O)Nc1cc(-c2ccc(OC)cc2)nc(-c2ccc(OC)cc2)n1 | 1.4
2. CC(=O)Nc1cc(-c2ccc(C)cc2)nc(-c2ccc(C)cc2)n1 | 3.56
3. COc1ccc(-c2cc(NC(C)=O)nc(-c3ccc(OC)cc3OC)n2)c(OC)c1 | 3.85
4. CCCC(=O)Nc1cc(-c2ccc(OC)cc2)nc(-c2ccc(OC)cc2)n1 | 1.57

Here is another compound to look at.
Exercise: Hi! What's the reported Kb for `CCC(=O)Nc1cc(-c2ccc(Cl)cc2)nc(-c2ccc(Cl)cc2)n1` on Adenosine receptor A3 (Homo sapiens) (UniProt P0DMS8)?
Key: 3.88

* * *

Molecular target: Adenosine receptor A3 (Homo sapiens, UniProt P0DMS8)
Experiment: Displacement of [3H]NECA from human adenosine A3 receptor expressed in human HeLa cells by liquid scintillation counting
Type: cell-based
Details: read-out: Ki
recorded.metric: Ki (nM)
Just the number in nM, nothing appended.

1. CCCC(=O)Nc1cc(-c2ccc(OC)cc2OC)nc(-c2ccc(OC)cc2OC)n1 | 10.2
2. CCC(CC)C(=O)Nc1cc(-c2ccc(OC)cc2OC)nc(-c2ccc(OC)cc2OC)n1 | 52.4
3. CCC(=O)Nc1cc(-c2ccccc2)nc(-c2ccccc2)n1 | 45.5

Let us examine a further case.
Exercise: What value of Ki has been reported for the following molecule? `CC(=O)Nc1cc(-c2ccc(F)cc2)nc(-c2ccc(F)cc2)n1`
Key: 16.7

* * *

Here, each record is paired with measured inhibition data.
Target: Adenosine receptor A2b (Homo sapiens)
Assay: Displacement of [3H]DPCPX from human adenosine A2B receptor expressed in HEK293 cells at 0.1 uM by liquid scintillation counting
Assay type: cell-based
Respond with the bare value in %.

Worked examples, 9 compounds total:
1. CCCC(=O)Nc1nc(-c2cccs2)cc(-c2cccs2)n1 | 3
2. CC(=O)Nc1nc(-c2ccc(C(C)=O)cc2)cc(-c2ccc(C(C)=O)cc2)n1 | 14
3. CCC(=O)Nc1cc(-c2ccc(C)cc2)nc(-c2ccc(C)cc2)n1 | 2
4. CCC(=O)Nc1nc(-c2cccs2)cc(-c2cccs2)n1 | 2
5. CCC(=O)Nc1cc(-c2ccc(C(C)=O)cc2)nc(-c2ccc(C(C)=O)cc2)n1 | 2
6. CCCC(=O)Nc1nc(-c2ccc(Cl)cc2)cc(-c2ccc(Cl)cc2)n1 | 1
7. CCCC(=O)Nc1nc(-c2ccc(C(F)(F)F)cc2)cc(-c2ccc(C(F)(F)F)cc2)n1 | 13
8. CC(=O)Nc1nc(-c2ccccc2F)cc(-c2ccccc2F)n1 | 10
9. CCC(=O)Nc1cc(-c2ccc(SC)cc2)nc(-c2ccc(SC)cc2)n1 | 3

Now consider the entry below.
Exercise: // fetch Adenosine receptor A2b (Homo sapiens) inhibition for `CCC(=O)Nc1cc(-c2ccc(F)cc2)nc(-c2ccc(F)cc2)n1`
Key: 1

* * *

// values below are reported inhibition
Target: Adenosine receptor A2a (Homo sapiens, UniProt P29274)
Sequence (P29274 whole entry): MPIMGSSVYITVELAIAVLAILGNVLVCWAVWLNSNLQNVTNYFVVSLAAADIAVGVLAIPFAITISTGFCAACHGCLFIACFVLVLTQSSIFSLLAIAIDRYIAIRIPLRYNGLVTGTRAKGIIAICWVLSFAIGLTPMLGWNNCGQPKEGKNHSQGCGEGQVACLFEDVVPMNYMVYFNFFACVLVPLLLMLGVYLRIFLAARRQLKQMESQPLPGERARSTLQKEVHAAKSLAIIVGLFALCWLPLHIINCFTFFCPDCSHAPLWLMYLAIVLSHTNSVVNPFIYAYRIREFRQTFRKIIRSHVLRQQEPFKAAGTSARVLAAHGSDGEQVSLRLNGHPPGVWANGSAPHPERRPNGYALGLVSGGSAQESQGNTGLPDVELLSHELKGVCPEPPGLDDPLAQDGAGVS
Assay: Displacement of [3H][…] from human adenosine A2A receptor expressed in human HeLa cells at 0.1 uM by liquid scintillation counting
Assay type: cell-based
Numbers only; they are read as %.

Here's what some known entries look like.
1. CC(=O)Nc1nc(-c2ccccc2)cc(-c2ccccc2)n1 | 11
2. CC(=O)Nc1nc(-c2ccoc2)cc(-c2ccoc2)n1 | 1
3. CCC(=O)Nc1nc(-c2ccc(OC)cc2)cc(-c2ccc(OC)cc2)n1 | 1
4. CC(=O)Nc1cc(-c2ccc(C(F)(F)F)cc2)nc(-c2ccc(C(F)(F)F)cc2)n1 | 1
5. CCC(=O)Nc1nc(-c2ccc(OC)cc2OC)cc(-c2ccc(OC)cc2OC)n1 | 14
6. CCC(=O)Nc1cc(-c2ccc(OC)cc2OC)nc(-c2ccc(OC)cc2OC)n1 | 14

Exercise: State the recorded inhibition for this entry: `CCCC(=O)Nc1cc(-c2ccc(OC)cc2OC)nc(-c2ccc(OC)cc2OC)n1`
Key: 12

Exercise: // query inhibition value for entry `CCCC(=O)Nc1cc(-c2ccccc2OC)nc(-c2ccccc2OC)n1`
Key: 14

Exercise: Using the record for `COc1ccc(-c2cc(-c3ccc(OC)cc3OC)nc(NC(C)=O)n2)c(OC)c1` , report its inhibition.
Key: 2

Exercise: Any idea what its inhibition is? The molecule is `CCCC(=O)Nc1nc(-c2ccc(OC)cc2)cc(-c2ccc(OC)cc2)n1`
Key: 24

* * *

Biological target: Adenosine receptor A2a (Homo sapiens)
Test: Displacement of [3H][…] from human adenosine A2A receptor expressed in human HeLa cells at 0.1 uM by liquid scintillation counting
Format: cell-based
Everything with inhibition lower than 8% is N; everything else, including exactly 8%, is Y.

1. CCC(=O)Nc1nc(-c2ccc(C(C)=O)cc2)cc(-c2ccc(C(C)=O)cc2)n1 | Y
2. CCCC(=O)Nc1cc(-c2ccsc2)nc(-c2ccsc2)n1 | Y
3. CCC(CC)C(=O)Nc1cc(-c2ccc(OC)cc2)nc(-c2ccc(OC)cc2)n1 | N
4. CCCC(=O)Nc1nc(-c2ccoc2)cc(-c2ccoc2)n1 | Y
5. COc1ccc(-c2cc(NC(=O)C3CCCCC3)nc(-c3ccc(OC)cc3OC)n2)c(OC)c1 | N
6. CC(=O)Nc1nc(-c2ccc(F)cc2)cc(-c2ccc(F)cc2)n1 | N
7. CC(=O)Nc1cc(-c2ccc(Cl)cc2)nc(-c2ccc(Cl)cc2)n1 | Y
8. CCCC(=O)Nc1nc(-c2ccc(C)cc2)cc(-c2ccc(C)cc2)n1 | N

Exercise: Kindly determine if inhibition recorded for `CCC(=O)Nc1nc(-c2cccs2)cc(-c2cccs2)n1` is above or exactly 8%.
Key: Y

Exercise: Quick check, inhibition >= 8%? `CCC(=O)Nc1cc(/C=C/c2ccccc2)nc(/C=C/c2ccccc2)n1`
Key: N

Exercise: Please check the record `CCC(=O)Nc1nc(-c2ccc(C)cc2)cc(-c2ccc(C)cc2)n1` and state if its inhibition is at or above 8%.
Key: N

Exercise: Dear colleague, could you confirm whether `CCCC(=O)Nc1cc(-c2ccc(Cl)cc2)nc(-c2ccc(Cl)cc2)n1` has inhibition at or above 8%?
Key: Y

Exercise: Determine whether measured inhibition meets or exceeds 8% for `CC(=O)Nc1nc(-c2ccco2)cc(-c2ccco2)n1`
Key: Y

Exercise: Check if inhibition >= 8% (inclusive). Item: `COc1ccc(-c2cc(NC(=O)C(C)C)nc(-c3ccc(OC)cc3OC)n2)c(OC)c1`
Key: N

Exercise: Does the reported inhibition for `CCCC(=O)Nc1cc(-c2ccc(OC)cc2)nc(-c2ccc(OC)cc2)n1` fall at or above the 8% mark?
Key: N

Exercise: Does `CCCC(=O)Nc1nc(/C=C/c2ccccc2)cc(/C=C/c2ccccc2)n1` have a reported inhibition of at least 8%?
Key: N

Exercise: Item `COc1ccc(-c2cc(NC(C)=O)nc(-c3ccc(OC)cc3)n2)cc1` with inhibition of 8% or above?
Key: Y

Exercise: Reported inhibition reaches at least 8% for `CCCC(=O)Nc1nc(-c2ccc(SC)cc2)cc(-c2ccc(SC)cc2)n1` ?
Key: N

* * *

Biological target: Adenosine receptor A3 (Homo sapiens)
Sequence (P0DMS8 whole entry): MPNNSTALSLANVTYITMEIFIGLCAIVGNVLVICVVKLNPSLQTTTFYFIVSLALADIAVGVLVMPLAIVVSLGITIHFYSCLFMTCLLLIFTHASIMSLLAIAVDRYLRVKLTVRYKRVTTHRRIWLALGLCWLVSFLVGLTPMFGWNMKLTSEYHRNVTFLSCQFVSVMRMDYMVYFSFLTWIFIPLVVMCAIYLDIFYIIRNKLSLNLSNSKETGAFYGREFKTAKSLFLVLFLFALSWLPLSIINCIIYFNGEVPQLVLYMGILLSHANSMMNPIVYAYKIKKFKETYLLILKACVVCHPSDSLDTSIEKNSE
Experiment: Displacement of [3H]NECA from human adenosine A3 receptor expressed in human HeLa cells by liquid scintillation counting
Format: cell-based
Conditions: read-out: Ki
recorded.metric: pKi
Value format note: pKi is -log10 of concentration (mol/L); just state the number.

Examples with their reported pKi follow.
1. O=C(Nc1nc(-c2ccccc2)cc(-c2ccccc2)n1)C1CCCC1 | 6.77
2. CC(=O)Nc1cc(-c2ccccc2F)nc(-c2ccccc2F)n1 | 7.74
3. CCC(=O)Nc1nc(-c2ccccc2F)cc(-c2ccccc2F)n1 | 6.55
4. CCCC(=O)Nc1nc(-c2ccc3c(c2)OCO3)cc(-c2ccc3c(c2)OCO3)n1 | 6.12
5. CCCC(=O)Nc1cc(-c2ccccc2)nc(-c2ccccc2)n1 | 6.77

Exercise: Recorded pKi of `CC(=O)Nc1cc(/C=C/c2ccccc2)nc(/C=C/c2ccccc2)n1` , please.
Key: 7.81
